- Test details: Dose normalized AUC in po dosed mouse
- Format: ADME, organism-based
- Condition info: in vivo
Reported endpoint: AUC/dose (µM·kg·h/mg)
Give the quantity in µM·kg·h/mg, number only.

{"Structure notation": "CC(C)[C@@H](C)[C@@]1(C)CC[C@]2(C)[C@H]3CC[C@@H]4[C@@]5(COC[C@@]4(C)[C@@H](OC[C@](C)(N)C(C)C)[C@H](n4ncnc4-c4ccncc4)C5)C3=CC[C@@]2(C)[C@@H]1C(=O)O", "AUC/dose [µM·kg·h/mg]": 0.42}

Read the next record carefully.
input: Param item = CN[C@@](C)(CO[C@H]1[C@H](n2ncnc2-c2ccncc2)C[C@@]23COC[C@]1(C)[C@@H]2CC[C@H]1C3=CC[C@@]2(C)[C@H](C(=O)O)[C@@](C)([C@H](C)C(C)C)CC[C@]12C)C(C)C ; retrieve measured AUC/dose.
output: 0.83
